The reported numbers originate from paper PMC5976803.

This section presents binders with their documented ratio to parent values.
assayed system: anti-CLDN-5 ECR mAb clone 2B1
Sequence (chain, as listed by the source, chain 1 of 2): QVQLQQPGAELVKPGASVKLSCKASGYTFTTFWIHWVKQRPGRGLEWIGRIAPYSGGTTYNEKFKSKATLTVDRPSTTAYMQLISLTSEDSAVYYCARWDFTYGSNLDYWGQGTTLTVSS
Sequence (chain, as listed by the source, chain 2 of 2): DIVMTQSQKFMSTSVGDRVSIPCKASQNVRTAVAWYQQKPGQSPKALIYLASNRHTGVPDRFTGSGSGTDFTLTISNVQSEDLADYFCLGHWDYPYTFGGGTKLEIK
test protocol: proteoliposome ELISA
test conditions: chain shown with the change;; parent: est. 1.0; read off a plot
Please give only the number in your answer, with no unit.

INSERT INTO results (binder, readout_type, value_observed) VALUES
  ('AGIA-tagged human CLDN-5, cell-free synthesized proteoliposome, O00501 Q156A (protein) MGSAALEILGLVLCLVGWGGLILACGLPMWQVTAFLDHNIVTAQTTWKGLWMSCVVQSTGHMQCKVYDSVLALSTEVQAARALTVSAVLLAFVALFVTLAGAQCTTCVAPGPAKARVALTGGVLYLFCGLLALVPLCWFANIVVREFYDPSVPVSAKYELGAALYIGWAATALLMVGGCLLCCGAWVCTGRPDLSFPVKYSAPRRPTATGDYDKKNYV', 'ratio to parent', 0.55),
  ('AGIA-tagged human CLDN-5, cell-free synthesized proteoliposome, O00501 P150A (protein) MGSAALEILGLVLCLVGWGGLILACGLPMWQVTAFLDHNIVTAQTTWKGLWMSCVVQSTGHMQCKVYDSVLALSTEVQAARALTVSAVLLAFVALFVTLAGAQCTTCVAPGPAKARVALTGGVLYLFCGLLALVPLCWFANIVVREFYDASVPVSQKYELGAALYIGWAATALLMVGGCLLCCGAWVCTGRPDLSFPVKYSAPRRPTATGDYDKKNYV', 'ratio to parent', 0.27),
  ('AGIA-tagged human CLDN-5, cell-free synthesized proteoliposome, O00501 D149A (protein) MGSAALEILGLVLCLVGWGGLILACGLPMWQVTAFLDHNIVTAQTTWKGLWMSCVVQSTGHMQCKVYDSVLALSTEVQAARALTVSAVLLAFVALFVTLAGAQCTTCVAPGPAKARVALTGGVLYLFCGLLALVPLCWFANIVVREFYAPSVPVSQKYELGAALYIGWAATALLMVGGCLLCCGAWVCTGRPDLSFPVKYSAPRRPTATGDYDKKNYV', 'ratio to parent', 0.11);

Attention now shifts to the item below.
Dear colleague, I am looking for the recorded ratio to parent of the following binder: AGIA-tagged human CLDN-5, cell-free synthesized proteoliposome, O00501 Y148A (protein) MGSAALEILGLVLCLVGWGGLILACGLPMWQVTAFLDHNIVTAQTTWKGLWMSCVVQSTGHMQCKVYDSVLALSTEVQAARALTVSAVLLAFVALFVTLAGAQCTTCVAPGPAKARVALTGGVLYLFCGLLALVPLCWFANIVVREFADPSVPVSQKYELGAALYIGWAATALLMVGGCLLCCGAWVCTGRPDLSFPVKYSAPRRPTATGDYDKKNYV
1.1
